# System: MLK1
# Construct: gene MAP3K9
# assayContext: Compound Concentration (nM):1000;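 also: KINOMEscan scanMAX binding as percent activity remaining versus control; lower means stronger binding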
measurementLabel: Percent Control (%)
Respond with the bare value in %.

Previously resolved entries follow.
compound: Cl.c1ccc(Cc2nc3ccc(Nc4ncnc5ccccc45)cc3[nH]2)cc1 [GR269666A]
Percent Control [%]: 100

compound: CN(C)c1cc2c(Nc3ccc4c(cnn4Cc4ccccc4)c3)ncnc2cn1 [GW282974X]
Percent Control [%]: 89

compound: COc1ccc2cc(-c3c(-c4ccncc4)nc(-c4ccc(S(C)(=O)=O)cc4C)n3C)ccc2c1
Percent Control [%]: 63

compound: COc1cc(/C=N/Nc2ncnc3[nH]ncc23)ccc1O [GW578748X]
Percent Control [%]: 66

compound: COc1ccc2c(-c3ccnc(Nc4cccc(OC(F)(F)F)c4)n3)cnn2n1 [GW810372X]
Percent Control [%]: 100

Prompt: Name the reported Percent Control value associated with the compound CCS(=O)(=O)c1ccc(OC)c(Nc2ncc(-c3cccc(OC)c3)o2)c1 [GW580509X]
Completion: 100

Prompt: What does the data say about its Percent Control? Entry: CC1=C(C(=O)Nc2ccc3[nH]ncc3c2)C(c2ccc3ccccc3c2)CC(=O)N1 (centres unmarked) [GSK270822A]
Completion: 68

Prompt: Need Percent Control, item CC(C)COC(=O)c1ccc2c(c1)/C(=C/Nc1ccc(S(N)(=O)=O)cc1)C(=O)N2 [GW416981X]
Completion: 100

====

# Test system: ADCK3
# Construct: gene CABC1
# assayContext: Compound Concentration (nM):1000
measurementLabel: Percent Control

Some compounds with recorded Percent Control:
compound: CCc1ccc(Oc2nccc(-c3c(-c4ccc(F)cc4)ncn3C3CCNCC3)n2)cc1
Percent Control: 100%

compound: COc1ccc2c(-c3ccnc(Nc4cccc(OC(F)(F)F)c4)n3)cnn2n1 [GW810372X]
Percent Control: 100%

compound: CN(C)c1cc2c(Nc3ccc4c(cnn4Cc4ccccc4)c3)ncnc2cn1 [GW282974X]
Percent Control: 98%

Prompt: State the recorded Percent Control for this entry: CN1CCN(C(=O)c2ccc(NC(=O)Nc3ccc(N(C)c4ccnc(Nc5ccc(CS(C)(=O)=O)cc5)n4)cc3)cc2)CC1.Cl [GW830263A]
Completion: 100%

Prompt: Looking for the measured Percent Control of COc1cc(C=NNc2ncnc3c2cnn3-c2ccccc2)ccc1O [GW513184X] , can you help?
Completion: 95%

Prompt: Dear colleague, I am looking for the recorded Percent Control of the following compound: `NS(=O)(=O)c1ccc(N/N=C2\C(=O)Nc3ccc(-c4cnco4)cc32)cc1`
Completion: 100%

Prompt: What value of Percent Control has been recorded for this entry: COc1cc2ncn(-c3cc(O[C@H](C)c4ccccc4Cl)c(C(N)=O)s3)c2cc1OC [GSK237701A]
Completion: 100%

Prompt: Suppose we examine the compound `COc1ccc2cc(-c3c(-c4ccncc4)nc(-c4ccc(S(C)(=O)=O)cc4C)n3C)ccc2c1` ; what Percent Control value has been reported?
Completion: 100%

====

# Test system: MTOR
# assayContext: Compound Concentration (nM):1000
# Percent Control annotations
Just the number in %, nothing appended.

Below, each entry is followed by its recorded Percent Control result.
compound: Nc1ncnc2occ(-c3ccc(NC(=O)Nc4cc(C(F)(F)F)ccc4F)cc3)c12 [GW770249X]
testedTarget: MTOR
valueUnits: %
Percent Control: 100
//
compound: CCS(=O)(=O)c1ccc(OC)c(Nc2ncc(-c3cccc(OC)c3)o2)c1 [GW580509X]
testedTarget: MTOR
valueUnits: %
Percent Control: 100
//
compound: NS(=O)(=O)c1ccc(Nc2ncc(-c3ccccc3)o2)cc1 [GW572399X]
testedTarget: MTOR
valueUnits: %
Percent Control: 88
//
compound: COc1cc(N2CCN(C(C)C)CC2)ccc1Nc1nc(Nc2ccc(F)cc2C(=O)NC[C@@H](O)CO)c2cc[nH]c2n1 [GSK1392956A]
testedTarget: MTOR
valueUnits: %
Percent Control: 100
//
compound: COc1cc(C)c(N(C)C(=O)CN(C)C)cc1Nc1nc(Nc2cccc(F)c2C(N)=O)c2cc[nH]c2n1
testedTarget: MTOR
valueUnits: %
Percent Control: 100
//
compound: CC1=C(C(=O)Nc2ccc3[nH]ncc3c2)C(c2ccc3ccccc3c2)CC(=O)N1 (centres unmarked) [GSK270822A]
testedTarget: MTOR
valueUnits: %
Percent Control: 100
//
compound: NS(=O)(=O)c1ccc(N/N=C2\C(=O)Nc3ccc(C(=O)NCc4ccncc4)cc32)cc1 [GW300657X]
testedTarget: MTOR
valueUnits: %
Percent Control: 97

Attention now turns to another entry.
Prompt: Short answer please: Percent Control, MTOR, entry COc1cccc(-c2c[nH]c3c(N/N=C/c4ccncc4)ncnc23)c1 [GW814408X]
Completion: 100

====

# Tested on: ERK4
# Construct: gene MAPK4
# assayContext: Compound Concentration (nM):1000
measurementLabel: Percent Control

Prompt: Recorded Percent Control of COc1cccc(-n2ncc3c(N/N=C/c4ccncc4)ncnc32)c1 [GW784752X] , please.
Completion: 58%

Prompt: // lookup Percent Control for CN(C)CCNC(=O)Nc1ccc(N(C)c2ccnc(Nc3ccc(CS(C)(=O)=O)cc3)n2)cc1.Cl [GW830900A]
Completion: 93%

Prompt: Entry under review: COc1ccc2[nH]c3c4[nH]c5ccc(OC)cc5c4c4c(c3c2c1)C(=O)NC4=O [GW296115X] . Reported Percent Control?
Completion: 74%

Prompt: // returns reported Percent Control for input COc1ccc2c(-c3ccnc(Nc4cccc(OC(F)(F)F)c4)n3)cnn2n1 [GW810372X]
Completion: 100%

Prompt: Look up Percent Control for this compound: O=C1Nc2ccc(C(=O)c3ccco3)cc2C1=Cc1cc(Cl)c(O)c(Cl)c1 [GW406108X]
Completion: 100%

Prompt: What value of measured Percent Control is listed for NS(=O)(=O)c1ccc(N/N=C2\C(=O)Nc3ccc(Cl)cc32)cc1 [GW280670X] ?
Completion: 100%

Prompt: // query Percent Control value for entry CC1=C(C(=O)Nc2ccc3[nH]ncc3c2)C(c2ccc(Cl)c(Cl)c2)CC(=O)N1 (stereo not drawn) [GSK299115A]
Completion: 100%

====

Each entry below carries its reported Percent Control.
# Tested on: WNK2
# assayContext: Compound Concentration (nM):1000
Response body: numeric value in %, unit text excluded.

Here are 2 molecules together with their reported answers.
molecule: COc1cc(/C=N/Nc2ncnc3[nH]ncc23)ccc1O [GW578748X]
measurementLabel: Percent Control
testResult: 70

molecule: O=C1Nc2ccc(C(=O)c3ccco3)cc2C1=Cc1cc(Cl)c(O)c(Cl)c1 [GW406108X]
measurementLabel: Percent Control
testResult: 100

Prompt: For the record COc1cc(N2CCN(C(C)C)CC2)ccc1Nc1nc(Nc2ccc(F)cc2C(=O)NC[C@@H](O)CO)c2cc[nH]c2n1 [GSK1392956A] , what value of Percent Control is listed for WNK2?
Completion: 100

Prompt: Please tell me: Percent Control of Cl.O=C(Nc1ccc(Oc2ccc3[nH]c(NC(=O)c4ccco4)nc3c2)cc1)Nc1cc(C(F)(F)F)ccc1F [GW683134A] , system WNK2?
Completion: 100

====

# Test system: GRK2
# Construct: gene ADRBK1
# assayContext: Compound Concentration (nM):1000
measurementLabel: Percent Control

Prompt: Percent Control lookup needed for NS(=O)(=O)c1ccc(N/N=C2\C(=O)Nc3ccc(Cl)cc32)cc1 [GW280670X] , thanks.
Completion: 100%

Prompt: Value lookup for Percent Control; key = `COc1cc(C)c(N(C)C(=O)CN(C)C)cc1Nc1nc(Nc2cccc(F)c2C(N)=O)c2cc[nH]c2n1`
Completion: 100%

Prompt: Any idea what Percent Control was measured for COc1cc(/C=N/Nc2ncnc3[nH]ncc23)ccc1O [GW578748X] ?
Completion: 100%

Prompt: // query Percent Control value for entry COc1cc(N2CCN(C(C)C)CC2)ccc1Nc1nc(Nc2ccc(F)cc2C(=O)NC[C@@H](O)CO)c2cc[nH]c2n1 [GSK1392956A]
Completion: 100%

Prompt: // returns reported Percent Control for input `NS(=O)(=O)c1ccc(N/N=C2\C(=O)Nc3ccc(-c4cnco4)cc32)cc1`
Completion: 94%

====

Percent Control reference
# Test system: CLK3
# assayContext: Compound Concentration (nM):1000
Respond numerically; units are % and should not be typed.

Worked cases, answers included:
compound: COc1ccccc1-c1cc(/C=C2\C(=O)Nc3ncc(Br)cc32)cc(Br)c1O [GW442130X]
measurementLabel: Percent Control
testResult: 84

compound: COc1cccc(-n2ncc3c(N/N=C/c4ccncc4)ncnc32)c1 [GW784752X]
measurementLabel: Percent Control
testResult: 100

compound: Cl.O=C(Nc1ccc(Oc2ccc3[nH]c(NC(=O)c4ccco4)nc3c2)cc1)Nc1cc(C(F)(F)F)ccc1F [GW683134A]
measurementLabel: Percent Control
testResult: 100

compound: NS(=O)(=O)c1ccc(N/N=C2\C(=O)Nc3ccc(Cl)cc32)cc1 [GW280670X]
measurementLabel: Percent Control
testResult: 100

compound: CN1CCN(C(=O)c2ccc(NC(=O)Nc3ccc(N(C)c4ccnc(Nc5ccc(CS(C)(=O)=O)cc5)n4)cc3)cc2)CC1.Cl [GW830263A]
measurementLabel: Percent Control
testResult: 95

Prompt: Record COc1cccc(-c2c[nH]c3c(N/N=C/c4ccncc4)ncnc23)c1 [GW814408X] : what is its Percent Control with CLK3?
Completion: 80

Prompt: Provide value of Percent Control for this record tested with CLK3: COc1cc(N2CCN(C(C)C)CC2)ccc1Nc1nc(Nc2ccc(F)cc2C(=O)NC[C@@H](O)CO)c2cc[nH]c2n1 [GSK1392956A]
Completion: 77
